Tested on: HepG2
Assay: CellTiterGlo viability assay, initial screening
Format: cell-based
Conditions: Homo sapiens; HepG2, 72 hr; read-out: IC50 (relative IC50)
# maps each entry to its IC50

C[C@H](NP(=O)(N[C@@H](C)C(=O)OCc1ccccc1)OC[C@@H]1CC(O)[C@H](n2cnc3c(N)ncnc32)O1)C(=O)OCc1ccccc1 (stereo in doubt) [Compound J]: 15 to 100 µM

API: the following record is the query input.
Ask: Record Nc1ncnc2c1ncn2[C@@H]1O[C@H](CO)C[C@H]1O [Cordycepin, 3′-deoxyadenosine, reference compound] : what is its IC50 with HepG2?
Result: 15 to 100 µM
